Let's look at some molecules and their measured Purity vs. initial (%).
# ASSAY TEXT: Solid form stability study of salts and/or co-crystals at 25° C./60% RH and 40° C./75% RH
# Assay type: physicochemical
# SETTINGS: 2 weeks, 25° C./60% RH
PARAMETER: Purity vs. initial (%)

INSERT INTO results (molecule, unit_of_measure, measured) VALUES
  ('C[C@H](O)C(=O)C1=Nc2c(nc(N)[nH]c2=O)NC1 [Glycolate, sepiapterin]', '%', 99.7),
  ('C[C@H](O)C(=O)C1=Nc2c(nc(N)[nH]c2=O)NC1 [Gentisate, sepiapterin]', '%', 102.8),
  ('C[C@H](O)C(=O)C1=Nc2c(nc(N)[nH]c2=O)NC1 [Toluenesulfonate, sepiapterin]', '%', 94.4),
  ('C[C@H](O)C(=O)C1=Nc2c(nc(N)[nH]c2=O)NC1 [Fumarate, sepiapterin]', '%', 99.7),
  ('C[C@H](O)C(=O)C1=Nc2c(nc(N)[nH]c2=O)NC1 [Benzenesulfonate, sepiapterin]', '%', 95.8),
  ('C[C@H](O)C(=O)C1=Nc2c(nc(N)[nH]c2=O)NC1 [Methanesulfonate, sepiapterin]', '%', 100.9),
  ('C[C@H](O)C(=O)C1=Nc2c(nc(N)[nH]c2=O)NC1 [Phosphate, sepiapterin]', '%', 99.1),
  ('C[C@H](O)C(=O)C1=Nc2c(nc(N)[nH]c2=O)NC1 [Sulfate, sepiapterin]', '%', 96.0),
  ('C[C@H](O)C(=O)C1=Nc2c(nc(N)[nH]c2=O)NC1 [Nicotinate, sepiapterin]', '%', 100.3),
  ('C[C@H](O)C(=O)C1=Nc2c(nc(N)[nH]c2=O)NC1 [L-Tartrate, sepiapterin]', '%', 99.6),
  ('C[C@H](O)C(=O)C1=Nc2c(nc(N)[nH]c2=O)NC1 [Malonate, sepiapterin]', '%', 99.8),
  ('C[C@H](O)C(=O)C1=Nc2c(nc(N)[nH]c2=O)NC1 [HCI, sepiapterin]', '%', 97.8);

###

# ASSAY TEXT: Solid form stability study of salts and/or co-crystals at 25° C./60% RH and 40° C./75% RH
# Assay type: physicochemical
# SETTINGS: 2 weeks, 40° C./75% RH
Let's look at some molecules and their measured Purity (Area %).
PARAMETER: Purity (Area %)

INSERT INTO assay_data (molecule, unit_of_measure, measured) VALUES
  ('C[C@H](O)C(=O)C1=Nc2c(nc(N)[nH]c2=O)NC1 [Benzenesulfonate, sepiapterin]', 'Area %', 82.65),
  ('C[C@H](O)C(=O)C1=Nc2c(nc(N)[nH]c2=O)NC1 [HCI, sepiapterin]', 'Area %', 84.16),
  ('C[C@H](O)C(=O)C1=Nc2c(nc(N)[nH]c2=O)NC1 [Sulfate, sepiapterin]', 'Area %', 88.20),
  ('C[C@H](O)C(=O)C1=Nc2c(nc(N)[nH]c2=O)NC1 [Phosphate, sepiapterin]', 'Area %', 94.50);

###

# ASSAY TEXT: Solid form stability study of salts and/or co-crystals at 25° C./60% RH and 40° C./75% RH
# Format: physicochemical
# SETTINGS: 1 week, 40° C./75% RH
Let's look at some compounds and their measured Purity vs. initial (%).
PARAMETER: Purity vs. initial (%)

INSERT INTO measurements (compound, measured) VALUES
  ('C[C@H](O)C(=O)C1=Nc2c(nc(N)[nH]c2=O)NC1 [Gentisate, sepiapterin]', '102.7%'),
  ('C[C@H](O)C(=O)C1=Nc2c(nc(N)[nH]c2=O)NC1 [Toluenesulfonate, sepiapterin]', '92.0%'),
  ('C[C@H](O)C(=O)C1=Nc2c(nc(N)[nH]c2=O)NC1 [HCI, sepiapterin]', '95.0%'),
  ('C[C@H](O)C(=O)C1=Nc2c(nc(N)[nH]c2=O)NC1 [Fumarate, sepiapterin]', '99.7%');
